# targetEntity: human P450 51A1 (Homo sapiens)
# assayProcedure: Single-turnover rapid-quench kinetics of [3-3H]-dihydrolanosterol oxidation (radio-HPLC)
# Assay type: biochemical
# Design: made in house; host or cells: Escherichia coli
# assayConditions: time 1.2 s
measuredEndpoint: concentration in single-turnover reaction (µM)
Give bare numbers, in µM.

// below: answered compounds
compound | targetEntity | assayResult
CC(C)CCC[C@@H](C)[C@H]1CC=C2C3=C(CC[C@@]21C)[C@@]1(C)CC[C@H](O)C(C)(C)[C@@H]1CC3 [dihydro FF-MAS, 24,25-dihydro FF-MAS] | human P450 51A1 (Homo sapiens) | 4.494
CC(C)CCCC(C)[C@H]1CC[C@@]2(CO)C3=C(CC[C@]12C)[C@@]1(C)CC[C@H](O)C(C)(C)C1CC3 (stereo partly drawn) [14α-CH2OH dihydrolanosterol, 24,25-dihydro-14α-CH2OH lanosterol] | human P450 51A1 (Homo sapiens) | 0
CC(C)CCCC(C)[C@H]1CC[C@@]2(C)C3=C(CC[C@]12C)[C@@]1(C)CC[C@H](O)C(C)(C)C1CC3 (stereo partly shown) [dihydrolanosterol, 24,25-dihydrolanosterol] | human P450 51A1 (Homo sapiens) | 1.1711

// next item, concentration in single-turnover reaction requested
get_value(item= CC(C)CCCC(C)[C@H]1CC[C@@]2(C=O)C3=C(CC[C@]12C)[C@@]1(C)CC[C@H](O)C(C)(C)C1CC3 (stereo partly drawn) [14α-CHO dihydrolanosterol, 24,25-dihydro-14α-formyl lanosterol] , readout=concentration in single-turnover reaction) returns 1.3349

----------
# targetEntity: human P450 51A1 (Homo sapiens, UniProt Q16850)
# Sequence (Q16850 1-509): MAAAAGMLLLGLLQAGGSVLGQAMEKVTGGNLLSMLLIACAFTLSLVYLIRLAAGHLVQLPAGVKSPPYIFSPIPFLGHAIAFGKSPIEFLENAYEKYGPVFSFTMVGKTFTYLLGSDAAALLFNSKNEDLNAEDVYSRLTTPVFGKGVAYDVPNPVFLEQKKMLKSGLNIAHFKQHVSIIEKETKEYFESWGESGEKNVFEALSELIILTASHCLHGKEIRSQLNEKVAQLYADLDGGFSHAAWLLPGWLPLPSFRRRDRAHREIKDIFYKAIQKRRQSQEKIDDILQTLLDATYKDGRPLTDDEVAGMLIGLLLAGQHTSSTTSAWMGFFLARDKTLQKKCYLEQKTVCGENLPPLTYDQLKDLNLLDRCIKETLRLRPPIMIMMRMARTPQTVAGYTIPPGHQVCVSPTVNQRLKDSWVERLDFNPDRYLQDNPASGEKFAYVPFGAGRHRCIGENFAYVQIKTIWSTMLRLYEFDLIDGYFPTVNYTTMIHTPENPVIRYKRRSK
# assayProcedure: Single-turnover rapid-quench kinetics of [3-3H]-dihydrolanosterol oxidation (radio-HPLC)
# Format: biochemical
# Design: made in house; host or cells: Escherichia coli
# assayConditions: time 0.8 s
measuredEndpoint: concentration in single-turnover reaction (µM)
Answers are plain numbers, in µM.

Worked set:
compound | unitOfMeasure | assayResult
CC(C)CCCC(C)[C@H]1CC[C@@]2(C=O)C3=C(CC[C@]12C)[C@@]1(C)CC[C@H](O)C(C)(C)C1CC3 (stereo partly drawn) [14α-CHO dihydrolanosterol, 24,25-dihydro-14α-formyl lanosterol] | µM | 1.4126
CC(C)CCCC(C)[C@H]1CC[C@@]2(C)C3=C(CC[C@]12C)[C@@]1(C)CC[C@H](O)C(C)(C)C1CC3 (stereo partly shown) [dihydrolanosterol, 24,25-dihydrolanosterol] | µM | 1.5841
CC(C)CCCC(C)[C@H]1CC[C@@]2(CO)C3=C(CC[C@]12C)[C@@]1(C)CC[C@H](O)C(C)(C)C1CC3 (stereo partly drawn) [14α-CH2OH dihydrolanosterol, 24,25-dihydro-14α-CH2OH lanosterol] | µM | 0.9849

Measured concentration in single-turnover reaction of CC(C)CCC[C@@H](C)[C@H]1CC=C2C3=C(CC[C@@]21C)[C@@]1(C)CC[C@H](O)C(C)(C)[C@@H]1CC3 [dihydro FF-MAS, 24,25-dihydro FF-MAS] : 3.0184

----------
# targetEntity: human P450 51A1 (Homo sapiens, UniProt Q16850)
# assayProcedure: Single-turnover rapid-quench kinetics of [3-3H]-dihydrolanosterol oxidation (radio-HPLC)
# Type: biochemical
# Set-up: made in house; host or cells: Escherichia coli
# assayConditions: time 1 s
Assignment: determine reported concentration in single-turnover reaction for the given compounds.
Give bare numbers, in µM.

For orientation, consider the following solved cases.
compound | targetEntity | unitOfMeasure | assayResult
CC(C)CCCC(C)[C@H]1CC[C@@]2(C)C3=C(CC[C@]12C)[C@@]1(C)CC[C@H](O)C(C)(C)C1CC3 (stereo partly shown) [dihydrolanosterol, 24,25-dihydrolanosterol] | human P450 51A1 (Homo sapiens, UniProt Q16850) | µM | 1.0563
CC(C)CCCC(C)[C@H]1CC[C@@]2(C=O)C3=C(CC[C@]12C)[C@@]1(C)CC[C@H](O)C(C)(C)C1CC3 (stereo partly drawn) [14α-CHO dihydrolanosterol, 24,25-dihydro-14α-formyl lanosterol] | human P450 51A1 (Homo sapiens, UniProt Q16850) | µM | 1.4476
CC(C)CCC[C@@H](C)[C@H]1CC=C2C3=C(CC[C@@]21C)[C@@]1(C)CC[C@H](O)C(C)(C)[C@@H]1CC3 [dihydro FF-MAS, 24,25-dihydro FF-MAS] | human P450 51A1 (Homo sapiens, UniProt Q16850) | µM | 4.0537

--- query ---
Record for CC(C)CCCC(C)[C@H]1CC[C@@]2(CO)C3=C(CC[C@]12C)[C@@]1(C)CC[C@H](O)C(C)(C)C1CC3 (stereo partly drawn) [14α-CH2OH dihydrolanosterol, 24,25-dihydro-14α-CH2OH lanosterol] under target or system human P450 51A1 (Homo sapiens, UniProt Q16850): concentration in single-turnover reaction reported as 0.4431

----------
Kindly state concentration in single-turnover reaction for each of the entries shown.
# targetEntity: human P450 51A1 (Homo sapiens)
# assayProcedure: Single-turnover rapid-quench kinetics of [3-3H]-dihydrolanosterol oxidation (radio-HPLC)
# Format: biochemical
# Parameters: made in house; host or cells: Escherichia coli
# assayConditions: time 0.3 s
Answers are plain numbers, in µM.

Study these solved cases before continuing.
molecule | assayResult
CC(C)CCCC(C)[C@H]1CC[C@@]2(C=O)C3=C(CC[C@]12C)[C@@]1(C)CC[C@H](O)C(C)(C)C1CC3 (stereo partly drawn) [14α-CHO dihydrolanosterol, 24,25-dihydro-14α-formyl lanosterol] | 1.848
CC(C)CCCC(C)[C@H]1CC[C@@]2(CO)C3=C(CC[C@]12C)[C@@]1(C)CC[C@H](O)C(C)(C)C1CC3 (stereo partly drawn) [14α-CH2OH dihydrolanosterol, 24,25-dihydro-14α-CH2OH lanosterol] | 2.3331
CC(C)CCCC(C)[C@H]1CC[C@@]2(C)C3=C(CC[C@]12C)[C@@]1(C)CC[C@H](O)C(C)(C)C1CC3 (stereo partly shown) [dihydrolanosterol, 24,25-dihydrolanosterol] | 2.0671

Now examine the next entry.
The recorded concentration in single-turnover reaction for entry CC(C)CCC[C@@H](C)[C@H]1CC=C2C3=C(CC[C@@]21C)[C@@]1(C)CC[C@H](O)C(C)(C)[C@@H]1CC3 [dihydro FF-MAS, 24,25-dihydro FF-MAS] equals 0.7518

----------
Hi there, I'd appreciate the recorded concentration in single-turnover reaction for every entry that follows.
# targetEntity: human P450 51A1 (Homo sapiens, UniProt Q16850)
# Sequence (Q16850 1-509): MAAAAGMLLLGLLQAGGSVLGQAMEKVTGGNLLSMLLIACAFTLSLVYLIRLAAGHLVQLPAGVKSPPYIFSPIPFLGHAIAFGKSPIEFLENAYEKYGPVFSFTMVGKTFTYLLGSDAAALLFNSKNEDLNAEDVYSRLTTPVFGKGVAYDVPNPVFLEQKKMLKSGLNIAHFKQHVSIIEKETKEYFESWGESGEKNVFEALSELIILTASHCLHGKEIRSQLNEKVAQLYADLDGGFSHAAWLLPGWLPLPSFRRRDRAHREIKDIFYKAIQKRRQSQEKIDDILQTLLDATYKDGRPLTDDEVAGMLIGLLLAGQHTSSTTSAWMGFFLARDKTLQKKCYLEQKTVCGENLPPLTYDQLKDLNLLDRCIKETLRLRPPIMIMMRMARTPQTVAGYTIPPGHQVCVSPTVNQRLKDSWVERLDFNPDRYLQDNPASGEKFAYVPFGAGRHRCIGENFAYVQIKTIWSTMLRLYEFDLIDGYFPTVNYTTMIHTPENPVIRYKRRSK
# assayProcedure: Single-turnover rapid-quench kinetics of [3-3H]-dihydrolanosterol oxidation (radio-HPLC)
# Assay type: biochemical
# Design: made in house; host or cells: Escherichia coli
# assayConditions: time 1.6 s
One number for each entry, in µM.

Example entries begin here.
compound | targetEntity | assayResult
CC(C)CCCC(C)[C@H]1CC[C@@]2(CO)C3=C(CC[C@]12C)[C@@]1(C)CC[C@H](O)C(C)(C)C1CC3 (stereo partly drawn) [14α-CH2OH dihydrolanosterol, 24,25-dihydro-14α-CH2OH lanosterol] | human P450 51A1 (Homo sapiens, UniProt Q16850) | 0
CC(C)CCC[C@@H](C)[C@H]1CC=C2C3=C(CC[C@@]21C)[C@@]1(C)CC[C@H](O)C(C)(C)[C@@H]1CC3 [dihydro FF-MAS, 24,25-dihydro FF-MAS] | human P450 51A1 (Homo sapiens, UniProt Q16850) | 4.8181
CC(C)CCCC(C)[C@H]1CC[C@@]2(C=O)C3=C(CC[C@]12C)[C@@]1(C)CC[C@H](O)C(C)(C)C1CC3 (stereo partly drawn) [14α-CHO dihydrolanosterol, 24,25-dihydro-14α-formyl lanosterol] | human P450 51A1 (Homo sapiens, UniProt Q16850) | 0.8218

Please turn your attention to the following entry.
GET /value?item= CC(C)CCCC(C)[C@H]1CC[C@@]2(C)C3=C(CC[C@]12C)[C@@]1(C)CC[C@H](O)C(C)(C)C1CC3 (stereo partly shown) [dihydrolanosterol, 24,25-dihydrolanosterol] &field=concentration in single-turnover reaction returns 1.3601
